Test system: Cryptococcus neoformans
Conditions: Concentration 20 uM; ASSAY_TEST Inhibition of Fungal Growth; detection method Resazurin; Absorption (OD600-OD570); plate type 384well; NBS; CORNING #3640
Description: Antifungal activity against Cryptococcus neoformans H99 ATCC 208821 (CO-ADD:FG_002); MIC in YNB media using NBS plates, by Resazurin OD(600-570)
Measured potencies and affinities stand elsewhere.
measurementType: Inhibition (%)
Enter your answer as a number in %; do not include the unit.

{"molecule": "Cl.Oc1ccc2c3c1OC1C(O)CC[C@@]4(O)[C@@H](C2)N(CC2CCC2)CC[C@]314 (some centres undefined)", "targetUnderTest": "Cryptococcus neoformans", "uom": "%", "Inhibition": -7.08}

q: Specify reported Inhibition for the molecule shown: CCCC(C)(COC(N)=O)COC(=O)NC(C)C (centres undefined)
a: 4.79

q: Specify reported Inhibition for the molecule shown: Cl.O=C1CC2(CCCC2)CC(=O)N1CCCCN1CCN(c2ncccn2)CC1 [BUSPIRONE HYDROCHLORIDE]
a: -4.43

q: Specify reported Inhibition for the molecule shown: "C[C@]12CC[C@H]3[C@@H](CCC4=CC(=O)CC[C@@H]43)[C@@H]1CC[C@@H]2O"
a: -1.13

q: Specify reported Inhibition for the molecule shown: Cl.NCC(O)c1ccc(O)c(O)c1 (centres undefined)
a: -2.98

q: Specify reported Inhibition for the molecule shown: "CC[C@@H](C(N)=O)N1CCCC1=O"
a: -2.67

* * *

Tested on: Cryptococcus neoformans
Settings: Concentration 20 uM; ASSAY_TEST Inhibition of Fungal Growth; detection method Resazurin; Absorption (OD600-OD570); plate type 384well; NBS; CORNING #3640
Potency and affinity values are given separately.
# Lookup of reported Inhibition keyed by entry
Enter your answer as a number in %; do not include the unit.

{"compound": "C[C@H](CCC(=O)O)[C@H]1CC[C@H]2[C@@H]3C(=O)C[C@@H]4CC(=O)CC[C@]4(C)[C@H]3CC(=O)[C@]12C [DEHYDROCHOLIC ACID]", "Inhibition, %": 2.23}
{"compound": "CN(C)CCC=C1c2ccccc2CCc2ccccc21.Cl [AMITRIPTYLINE HYDROCHLORIDE]", "Inhibition, %": -4.46}
{"compound": "O=C(O)CCCc1ccc(N(CCCl)CCCl)cc1", "Inhibition, %": 0.85}
{"compound": "Cc1ccnc2c1NC(=O)c1cccnc1N2C1CC1", "Inhibition, %": -2.57}
{"compound": "CS(=O)(=O)Nc1ccc(Cc2noc(-c3ccc4[nH]cc(CCN)c4c3)n2)cc1.O.O", "Inhibition, %": -39.59}
{"compound": "CCC(COC(=O)c1cc(OC)c(OC)c(OC)c1)(c1ccccc1)N(C)C.O=C(O)/C=C\\C(=O)O (stereo not drawn)", "Inhibition, %": -7.66}
{"compound": "Cl.c1ccc2c(CC3=NCCN3)cccc2c1 [NAPHAZOLINE HYDROCHLORIDE]", "Inhibition, %": -4.12}
{"compound": "c1cncc([C@@H]2CCCN2)c1", "Inhibition, %": -7.65}
{"compound": "CC(C)c1cccc(C(C)C)c1O", "Inhibition, %": -1.51}
{"compound": "C[N+]1(C)CCN(c2ccccc2)CC1.[I-] [DIMETHYLPHENYLPIPERAZINIUM IODIDE]", "Inhibition, %": -7.47}

q: # return Inhibition of "CN1C(=O)CN=C(c2ccccc2)c2cc([N+](=O)[O-])ccc21" (system: Cryptococcus neoformans)
a: -7.7

q: # return Inhibition of "Cc1nnc2n1-c1ccc(Cl)cc1C(c1ccccc1)=NC2" (system: Cryptococcus neoformans)
a: -4.87

q: # return Inhibition of Cl.Cl.OCCN1CCN(CCCN2c3ccccc3Sc3ccc(C(F)(F)F)cc32)CC1 [FLUPHENAZINE HYDROCHLORIDE] (system: Cryptococcus neoformans)
a: -8.76

q: # return Inhibition of CC(C(=O)O)c1ccc(-c2ccccc2)c(F)c1 (stereo not drawn) (system: Cryptococcus neoformans)
a: -3.5

q: # return Inhibition of "CN1CCC[C@H]1c1cccnc1" (system: Cryptococcus neoformans)
a: -2.7

q: # return Inhibition of CC(NC(C)(C)C)C(=O)c1cccc(Cl)c1.Cl (stereo not drawn) [BUPROPION HYDROCHLORIDE] (system: Cryptococcus neoformans)
a: 3.12

q: # return Inhibition of CN(C)CCc1c[nH]c2ccc(Cn3cncn3)cc12.O=C(O)c1ccccc1 [RIZATRIPTAN BENZOATE] (system: Cryptococcus neoformans)
a: -5.39

q: # return Inhibition of CN1[C@@H](CC(=O)c2ccccc2)CCC[C@H]1C[C@H](O)c1ccccc1.Cl [LOBELINE HYDROCHLORIDE] (system: Cryptococcus neoformans)
a: -5.47
